# TESTED_TARGET: T1, human CD24 (human, UniProt P25063 27-59, heavily glycosylated, GPI-anchored (as described in the background))
# T1 construct: whole, on cells; Target of all cell-based FACS assays; also called hCD24; Cluster of differentiation 24
# T1 chain (looked up): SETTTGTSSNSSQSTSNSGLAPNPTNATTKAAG
# TEST_DETAILS: FACS, MCF7 cells
# Method: Screening & Expansion: The subcloning plates were screened by Acumen assay and the subclones with good binding ability were expanded to 24-wells for confirmation tests. The specificity and cross-reactivity of these subclones were confirmed with FACs analysis. […] Fluorescent dye-conjugated secondary antibody was used to detect the binding of the primary antibody with the cells. Median fluorescence intensity (MFI) was measured by FACs analysis.
ENDPOINT_LABEL: FACS MFI
The answer should be a number; do not append a unit.

Worked cases, FACS MFI given:
Query string: Note down FACS MFI recorded for SN3 (antibody, V domains shown) VH: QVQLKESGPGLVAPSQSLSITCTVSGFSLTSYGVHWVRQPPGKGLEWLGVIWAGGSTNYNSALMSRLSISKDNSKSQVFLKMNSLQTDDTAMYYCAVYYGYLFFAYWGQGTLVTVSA VL: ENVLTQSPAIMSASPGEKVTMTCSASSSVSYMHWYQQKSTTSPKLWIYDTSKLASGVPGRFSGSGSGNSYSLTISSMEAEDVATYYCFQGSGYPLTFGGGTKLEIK
Result string: 1080

Query string: Note down FACS MFI recorded for 58F10-1F6 (antibody, V domains shown, mouse monoclonal antibody) VH: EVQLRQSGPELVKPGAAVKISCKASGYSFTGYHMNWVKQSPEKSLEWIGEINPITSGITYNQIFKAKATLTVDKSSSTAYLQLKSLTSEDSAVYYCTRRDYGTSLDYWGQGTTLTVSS VL: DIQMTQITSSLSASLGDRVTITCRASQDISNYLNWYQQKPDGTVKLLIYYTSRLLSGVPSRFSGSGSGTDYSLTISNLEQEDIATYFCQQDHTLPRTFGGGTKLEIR
Result string: 17400

Continue with the binder presented below.
Query string: Note down FACS MFI recorded for 100F2E3 (antibody, V domains shown, mouse monoclonal antibody) VH: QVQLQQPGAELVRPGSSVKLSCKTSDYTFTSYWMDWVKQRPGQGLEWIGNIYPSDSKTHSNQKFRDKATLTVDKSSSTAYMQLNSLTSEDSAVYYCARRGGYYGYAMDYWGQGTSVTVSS VL: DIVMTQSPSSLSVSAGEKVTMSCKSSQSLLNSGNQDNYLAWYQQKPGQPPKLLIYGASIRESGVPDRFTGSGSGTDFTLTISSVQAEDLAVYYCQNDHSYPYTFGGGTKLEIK
Result string: 7160
